Test: Toxicity liver stage against HepG2, at 10uM
Type: cell-based
Parameters: test concentration 10 uM, cell line HepG2-A16-CD81EGFP
Conditions: human, HepG2-A16-CD81EGFP cells; read-out: INHIBITION
metricName: cytotoxicity at 10 µM (%)
Give bare numbers, in %.

Here is how some compounds turned out for cytotoxicity at 10 µM.
INSERT INTO measurements (compound, unitspec, reported) VALUES
  ('CCN1CC2(CC1=O)CN(Cc1ccsc1)CCN(C(=O)C(C)C)C2 (stereo not given)', '%', 5.08),
  ('CCOc1ccc(Cl)c(C(=O)N2CCN(C(=O)OC)CC2)n1', '%', -6.33),
  ('CCOC(=O)N(C)C1CCN(Cc2ccsc2)CC1', '%', -0.572),
  ('CCCOc1ccccc1C(N)CC(C)C (stereo not given)', '%', -0.595);

Asked: cytotoxicity at 10 µM lookup needed for CC(C)Oc1ccc(C(=O)N2CCCC2c2cnn(C)c2)cn1 (stereo not given) , thanks.
Given back: -6.37
